protein stability index values for the variants below.
B1: KRT15 (parent)
chain: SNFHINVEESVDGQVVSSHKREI

Variants of: B1
Assay: protein stability index of a GFP-peptide fusion (GPS, HEK-293T) (PSI 1-6); higher = more stable;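 note: lentivirally expressed fusions sorted by FACS into six bins by GFP to DsRed ratio, PSI derived from sequencing read proportions per bin multiplied by bin number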
Details: c terminus: native
result-type: protein stability index

[[record]]
variant_string = "N2W"
result_type = "protein stability index"
recorded_value = 2.14

[[record]]
variant_string = "S10G"
result_type = "protein stability index"
recorded_value = 2.19

[[record]]
variant_string = "N2H"
result_type = "protein stability index"
recorded_value = 2.79

[[record]]
variant_string = "V16T"
result_type = "protein stability index"
recorded_value = 2.99

[[record]]
variant_string = "E9K"
result_type = "protein stability index"
recorded_value = 1

[[record]]
variant_string = "I23G"
result_type = "protein stability index"
recorded_value = 3.55

[[record]]
variant_string = "N6I"
result_type = "protein stability index"
recorded_value = 3.69

[[record]]
variant_string = "H4Q"
result_type = "protein stability index"
recorded_value = 1.52

[[record]]
variant_string = "R21G"
result_type = "protein stability index"
recorded_value = 4.9

[[record]]
variant_string = "N6C"
result_type = "protein stability index"
recorded_value = 1.9

[[record]]
variant_string = "H4A"
result_type = "protein stability index"
recorded_value = 1.98

[[record]]
variant_string = "V15A"
result_type = "protein stability index"
recorded_value = 1.71

[[record]]
variant_string = "G13P"
result_type = "protein stability index"
recorded_value = 2.19

[[record]]
variant_string = "E8N"
result_type = "protein stability index"
recorded_value = 1.9

[[record]]
variant_string = "K20G"
result_type = "protein stability index"
recorded_value = 3.06

[[record]]
variant_string = "H19V"
result_type = "protein stability index"
recorded_value = 3.51

[[record]]
variant_string = "N2V"
result_type = "protein stability index"
recorded_value = 1.71

[[record]]
variant_string = "K20C"
result_type = "protein stability index"
recorded_value = 2.39

[[record]]
variant_string = "N6T"
result_type = "protein stability index"
recorded_value = 2.42

[[record]]
variant_string = "H19E"
result_type = "protein stability index"
recorded_value = 4.9

[[record]]
variant_string = "D12W"
result_type = "protein stability index"
recorded_value = 3.13

[[record]]
variant_string = "I23D"
result_type = "protein stability index"
recorded_value = 4.89

[[record]]
variant_string = "V15T"
result_type = "protein stability index"
recorded_value = 2.31

[[record]]
variant_string = "I5A"
result_type = "protein stability index"
recorded_value = 3.14

[[record]]
variant_string = "S1A"
result_type = "protein stability index"
recorded_value = 2.11

[[record]]
variant_string = "S10R"
result_type = "protein stability index"
recorded_value = 2.21

[[record]]
variant_string = "G13Q"
result_type = "protein stability index"
recorded_value = 1.96

[[record]]
variant_string = "H4P"
result_type = "protein stability index"
recorded_value = 2.57

[[record]]
variant_string = "E22P"
result_type = "protein stability index"
recorded_value = 4.74

[[record]]
variant_string = "S10N"
result_type = "protein stability index"
recorded_value = 2.09

[[record]]
variant_string = "V16P"
result_type = "protein stability index"
recorded_value = 2.18

[[record]]
variant_string = "I23N"
result_type = "protein stability index"
recorded_value = 4.98


The measurements presented in this section are drawn from the supplement of paper PMC10567573.
